# System: HLA-B*51:01
# Test: IEDB peptide-MHC binding, purified MHC/competitive/fluorescence; filed as Kd, often an IC50 or EC50 that approximates it; bounds were set here for any values at or beyond the usual limits of such assays
# Measurement parameters: source organism: Streptococcus pneumoniae TIGR4
pKd: −log10 of the molar value.
Property name: pKd

# input Please report the recorded pKd for `CLSDEINHV` .
# output ≤ 4.70

* * *

# System: HLA-A*02:01
# Test: IEDB peptide-MHC binding, purified MHC/direct/fluorescence; filed as Kd, often an IC50 or EC50 that approximates it; bounds were set here for any values at or beyond the usual limits of such assays
# Measurement parameters: source organism: Yersinia enterocolitica
Property name: Kd (nM)
Give bare numbers, in nM.

# input So what's the measured Kd for this one? `YIFRNTINM`
# output 222
